target: TNF-alpha (Homo sapiens, UniProt P01375 P01375:77-233); experiment: filter; class I; conditions: tags: Genzyme or R&D Systems; chain copies: 3 inferred
Sequence (P01375 77-233, one chain of several): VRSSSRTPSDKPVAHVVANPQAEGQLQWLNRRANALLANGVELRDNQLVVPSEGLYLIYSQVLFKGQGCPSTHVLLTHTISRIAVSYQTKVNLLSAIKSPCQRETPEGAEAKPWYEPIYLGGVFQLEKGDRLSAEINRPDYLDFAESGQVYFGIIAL
pKd: −log10 of the molar value.

binder: TNF 4C (ssRNA) RNA: GGGAGCUCAGAAUAAACGCUCAACUAGGCCCACCGUCCCUUCUAACAACGUCUUCGACAUGAGGCCCGGAUCCGGC
pKd: 7.04

binder: TNF 11C (ssRNA) RNA: GGGAGCUCAGAAUAAACGCUCAAUGAGGCGCGCCACAGGAUGGCCCUCAACCCUUCGACAUGAGGCCCGGAUCCGGC
pKd: 6.85

binder: TNF 15C (ssRNA) RNA: GGGAGCUCAGAAUAAACGCUCAACUAGUUCAACCGUCCCUUCUAACAACCGUCUUCGACAUGAGGCCCGGAUCCGGC
pKd: 6.91

binder: TNF 12C (ssRNA) RNA: GGGAGCUCAGAAUAAACGCUCAAGUCCGCAUGAUGCUUCGAACAGCAUACAACUUCGACAUGAGGCCCGGAUCCGGC
pKd: 6.16

binder: TNF 10C (ssRNA) RNA: GGGAGCUCAGAAUAAACGCUCAACGCCGAGACCCACCUCAUAACACCGCUACCUUCGACAUGAGGCCCGGAUCCGGC
pKd: 6.30

Origin of measurements: patent US5972599
